System Tested: OR7C1 (Homo sapiens, UniProt O76099, D296E/G302K/M297V/R299D/T295K/V126I)
Construct: Improved functional expression of modified OR-genes containing the truncated, optimized C-terminus; expressed in transfected cells; host or cells: HEK293T stably expressing human RTP1S(V227I) and RTP2(L220R)
Sequence (O76099 with tags, fused parts or gaps V126I/T295K/D296E/M297V/R299D/G302K): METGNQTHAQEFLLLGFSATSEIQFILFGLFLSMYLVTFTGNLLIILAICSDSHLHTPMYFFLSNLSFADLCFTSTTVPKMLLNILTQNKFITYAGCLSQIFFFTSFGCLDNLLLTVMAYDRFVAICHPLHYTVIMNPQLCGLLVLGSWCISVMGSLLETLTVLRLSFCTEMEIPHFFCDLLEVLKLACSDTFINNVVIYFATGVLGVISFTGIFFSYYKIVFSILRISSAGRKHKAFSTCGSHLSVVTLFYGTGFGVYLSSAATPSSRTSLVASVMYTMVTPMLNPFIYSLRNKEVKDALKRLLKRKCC
Assay Procedure: CRE-luciferase assay, HEK293T cells expressing OR7C1 (wild-type / modified C-terminus)
Type: cell-based
Recorded Conditions: OR7C1 variant, 1 μM Ambermax
Metric Name: % of the activation by the optimized sequence RNKEVKDALKRLLKRKCC (%)

- Substance: "SEQ ID NO: 102 (RNKEVKDALKRLIKRKCC; source 1..18: note = C-terminal domain sequence)"
  Units Text: "%"
  Data Value: 88.6
- Substance: "SEQ ID NO: 323 (RNKEVKHALKRLLKRKCC; source 1..18: note = C-terminal domain sequence)"
  Units Text: "%"
  Data Value: 65.6
- Substance: "SEQ ID NO: 109 (RNKELKDALKRLLKRKCC; source 1..18: note = C-terminal domain sequence)"
  Units Text: "%"
  Data Value: 43.8
- Substance: "SEQ ID NO: 189 (RNHEVKDALKRLLKRKCC; source 1..18: note = C-terminal domain sequence)"
  Units Text: "%"
  Data Value: 16.2
- Substance: "SEQ ID NO: 118 (RNKEVKRAIRKLLKRKCC; source 1..18: note = C-terminal domain sequence)"
  Units Text: "%"
  Data Value: 288.9
- Substance: "SEQ ID NO: 117 (RNKEVKKAIKRLFKRKCC; source 1..18: note = C-terminal domain sequence)"
  Units Text: "%"
  Data Value: 310.7
- Substance: "SEQ ID NO: 149 (RNKEVKDALKRLLKRKCRRR; source 1..20: note = C-terminal domain sequence)"
  Units Text: "%"
  Data Value: 265.3
- Substance: "SEQ ID NO: 221 (RNKEVKKAIKRLFKRKCCRRR; source 1..21: note = C-terminal domain sequence)"
  Units Text: "%"
  Data Value: 498.6
- Substance: "SEQ ID NO: 329 (RNKEVKTALKRLLKRKCC; source 1..18: note = C-terminal domain sequence)"
  Units Text: "%"
  Data Value: 129.9
- Substance: "SEQ ID NO: 331 (RNKEVKYALKRLLKRKCC; source 1..18: note = C-terminal domain sequence)"
  Units Text: "%"
  Data Value: 59.4
- Substance: "SEQ ID NO: 198 (RNKEVKDALKRLLKRKC; source 1..17: note = C-terminal domain sequence)"
  Units Text: "%"
  Data Value: 137.7
- Substance: "SEQ ID NO: 90 (RNKEVRDALKRLLKRKCC; source 1..18: note = C-terminal domain sequence)"
  Units Text: "%"
  Data Value: 117.4
- Substance: "SEQ ID NO: 188 (RQKEVKDALKRLLKRKCC; source 1..18: note = C-terminal domain sequence)"
  Units Text: "%"
  Data Value: 28.5
- Substance: "SEQ ID NO: 194 (RNKEVKDALKRVVKRKCC; source 1..18: note = C-terminal domain sequence)"
  Units Text: "%"
  Data Value: 30.4
- Substance: "SEQ ID NO: 195 (RNKEVKDALKRLRKRKCC; source 1..18: note = C-terminal domain sequence)"
  Units Text: "%"
  Data Value: 14.1
- Substance: "SEQ ID NO: 328 (RNKEVKSALKRLLKRKCC; source 1..18: note = C-terminal domain sequence)"
  Units Text: "%"
  Data Value: 99.1
- Substance: "SEQ ID NO: 186 (KNKEVKDALKRLLKRKCC; source 1..18: note = C-terminal domain sequence)"
  Units Text: "%"
  Data Value: 26.0
- Substance: "SEQ ID NO: 88 (RNKEIKDALKRLLKRKCC; source 1..18: note = C-terminal domain sequence)"
  Units Text: "%"
  Data Value: 66.5
- Substance: "SEQ ID NO: 150 (RNKEVKDALKRLLKRKCRKK; source 1..20: note = C-terminal domain sequence)"
  Units Text: "%"
  Data Value: 196.0
- Substance: "SEQ ID NO: 119 (RNKEVKDALRKLLKRKCC; source 1..18: note = C-terminal domain sequence)"
  Units Text: "%"
  Data Value: 157.1
- Substance: "SEQ ID NO: 104 (RNKEVKDALKRLLRRKCC; source 1..18: note = C-terminal domain sequence)"
  Units Text: "%"
  Data Value: 96.3
- Substance: "SEQ ID NO: 110 (RNKEVKGALKRLLKRKCC; source 1..18: note = C-terminal domain sequence)"
  Units Text: "%"
  Data Value: 41.6
- Substance: "SEQ ID NO: 112 (RNKEVKDALKRILKRKCC; source 1..18: note = C-terminal domain sequence)"
  Units Text: "%"
  Data Value: 53.2
- Substance: "SEQ ID NO: 192 (RNKEVKDAMKRLLKRKCC; source 1..18: note = C-terminal domain sequence)"
  Units Text: "%"
  Data Value: 27.0
- Substance: "SEQ ID NO: 154 (RNKEVKDALKRLLKRKCRRRR; source 1..21: note = C-terminal domain sequence)"
  Units Text: "%"
  Data Value: 263.5
- Substance: "SEQ ID NO: 326 (RNKEVKMALKRLLKRKCC; source 1..18: note = C-terminal domain sequence)"
  Units Text: "%"
  Data Value: 107.6
- Substance: "SEQ ID NO: 92 (RNKEVKEALKRLLKRKCC; source 1..18: note = C-terminal domain sequence)"
  Units Text: "%"
  Data Value: 81.3
- Substance: "SEQ ID NO: 120 (RNKEVKDALKRLLRRRCC; source 1..18: note = C-terminal domain sequence)"
  Units Text: "%"
  Data Value: 90.4
